Origin of the recorded values: ChEMBL document CHEMBL5058577

# Population Tubulin-Different-Phenotype (%) annotations
# Tested on: HEK-293T
# protocol text: Multiplex assay against HEK293T
# Type: toxicity, cell-based
# stated conditions: human, 48 h, 10 µM, compound concentration 10 uM, replicate 2
Report the value in % with no unit label.

Known results for compounds:
CC(C)(C)c1ccc(CSc2cnn(C(C)(C)C)c(=O)c2Cl)cc1 ... 28
CC(C)(O)C(=O)N1CCN(c2ccc(C(F)(F)F)c(C3=C(c4c[nH]c5ccccc45)C(=O)NC3=O)c2)CC1 ... 40
C[C@H](NC(=O)CNC(=O)c1cccc(Cl)c1)c1ccccc1 ... 16
O=c1nc2[nH]c3ccccc3nc-2c(=O)[nH]1 ... 14

Assign Population Tubulin-Different-Phenotype (%) to the following record: Cn1cc(C(=O)OCC2CCN(CCNS(C)(=O)=O)CC2)c2ccccc21
26

Identify Population Tubulin-Different-Phenotype (%) associated with the compound C[C@@H]1CC(=O)Nc2cccc(-c3ccc4c(c3)c(-c3cnn(C)c3)nn4C)c2N1
20

Input COc1c(Nc2ccc(S(C)(=O)=O)nc2C)ncnc1OC1CCN(C(=O)OC(C)C)CC1 , output reported Population Tubulin-Different-Phenotype (%).
18

Tell me Population Tubulin-Different-Phenotype (%) reported for COc1cc(OC2CCN(C(C)=O)CC2)ccc1C(=O)N1CCC(N2C(=O)OCc3ccccc32)CC1
16

====

# Test system: HEK-293T
# protocol text: Multiplex assay against HEK293T
# Format: toxicity, cell-based
# stated conditions: human, 24 h, 1 µM, compound concentration 1 uM, replicate 1
Some molecules, each annotated with its measured Population Normal (%).
Output spec: scalar in %, unitless text.

Examples with their reported Population Normal (%) follow.
COc1ccc2[nH]c(I)c(CCNC(C)=O)c2c1 ... 96
Cc1cc(=O)n(C)c2cc(N3C(=O)CC[C@H](NS(=O)(=O)CC(C)C)[C@H]3c3ccc(Cl)cc3)ccc12 ... 95
O=C(Nc1cc(-c2ccccc2)nn1-c1ccccc1F)c1ccc([N+](=O)[O-])cc1 ... 95
CN(C)C/C=C/C(=O)Nc1ccc(C(=O)N2CCCC(Nc3ncc(Cl)c(-c4c[nH]c5ccccc45)n3)C2)cc1 (stereo not drawn) ... 72
Cc1cc(NC(=O)NCCN2CCC(O)(Cc3ccccc3)CC2)c2ccccc2n1 ... 93
O=C(O)CCC/C=C\CC1C(O)CC(O)C1/C=C/C(O)COc1cccc(Cl)c1 (stereo not drawn) ... 92
Nc1nc(CC(=O)Nc2ccc(CCNC[C@H](O)c3ccccc3)cc2)cs1 ... 97
COc1cc2nc(N3CCN(C(=O)c4ccco4)CC3)nc(N)c2cc1OC.Cl [PRAZOSIN HYDROCHLORIDE] ... 96

Using the record for Cc1cc(O)c(-c2ccc([C@@H](C)CN(C)C)cc2)c2c1[nH]c(=O)c1sccc12 , state its measured Population Normal (%).
78

Assign Population Normal (%) to the following record: CC(C)(O)C(=O)N1CCN(c2ccc(C(F)(F)F)c(C3=C(c4c[nH]c5ccccc45)C(=O)NC3=O)c2)CC1
94

Return Population Normal (%) (reported value) for this molecule: CN1CCC(C(=O)c2cccc(NC(=O)c3c(F)cc(F)cc3F)n2)CC1
95

Provide Population Normal (%) value for the following molecule: S=C(NCCCc1c[nH]cn1)NCCCN(Cc1ccc(Cl)c(Cl)c1)c1ccc(Br)cn1
77

Give the reported value of Population Normal (%) for this record: CN1CCN(c2ccc(Nc3c4ccccc4nc4ccccc34)cc2)CC1.Cl.Cl.O
97

Give Population Normal (%) for C[C@@H]1CC(=O)Nc2cccc(-c3ccc4c(c3)c(-c3cnn(C)c3)nn4C)c2N1
92

# return recorded Population Normal (%) for entry COc1cc(OC2CCN(C(C)=O)CC2)ccc1C(=O)N1CCC(N2C(=O)OCc3ccccc32)CC1
95

Find the measured Population Normal (%) of COc1cc2nc(N3CCN(C(=O)COc4c(OC)cccc4C(C)C)CC3)nc(N)c2cc1OC.Cl.Cl and report it.
95

Return Population Normal (%) (reported value) for this molecule: COc1cc(Nc2ncc3c(n2)-c2ccc(Cl)cc2C(c2c(F)cccc2OC)=NC3)ccc1C(=O)O
96

Supply reported Population Normal (%) belonging to this molecule: COc1c(Nc2ccc(S(C)(=O)=O)nc2C)ncnc1OC1CCN(C(=O)OC(C)C)CC1
97

====

# System: HEK-293T
# protocol text: Multiplex assay against HEK293T
# Assay type: toxicity, cell-based
# stated conditions: human, 12 h, 10 µM, compound concentration 10 uM, replicate 1
Non-standard residues stand in square brackets, D forms with d. Residues, ends and D or L forms follow the SMILES beside them.
Entries annotated with measured Population Tubulin-Different-Phenotype (%)
The reply should be a number in %, with the unit left off.

Cc1cc(=O)n(C)c2cc(N3C(=O)CC[C@H](NS(=O)(=O)CC(C)C)[C@H]3c3ccc(Cl)cc3)ccc12 ... 81
CCC(=O)OCC(=O)[C@@]1(OC(=O)CC)[C@@H](C)C[C@H]2[C@@H]3CCC4=CC(=O)C=C[C@]4(C)[C@@]3(Cl)[C@@H](O)C[C@@]21C [BECLOMETHASONE DIPROPIONATE] ... 65
CC(C)C[C@@H]1NC(=O)[C@@H](C(C)C)NC(=O)[C@@H]2CCCN2C(=O)[C@@H](CC(=O)O)NC(=O)[C@@H](Cc2c[nH]c3ccccc23)NC1=O [BQ-123] (cyclo(L[dW][dD]P[dV])) ... 31

Look up and report measured Population Tubulin-Different-Phenotype (%) for this entry: COc1cc(OC2CCN(C(C)=O)CC2)ccc1C(=O)N1CCC(N2C(=O)OCc3ccccc32)CC1
47

# return recorded Population Tubulin-Different-Phenotype (%) for entry CN1CCC(C(=O)c2cccc(NC(=O)c3c(F)cc(F)cc3F)n2)CC1
50

Specify measured Population Tubulin-Different-Phenotype (%) for Nc1nc(-c2ccco2)c2cnn(Cc3ccccc3F)c2n1 .
43

Quick one: give measured Population Tubulin-Different-Phenotype (%) for O=c1ccc2ccc(OCCCCN3CCN(c4cccc5sccc45)CC3)cc2[nH]1
81

====

# Population Fragmented Nuclei (%) per entry
# System: U2OS
# protocol text: Multiplex assay against U2OS
# Type: toxicity, cell-based
# stated conditions: human, 48 h, 1 µM, compound concentration 1 uM, replicate 2
Non-standard residues stand in square brackets, D forms with d. Residues, ends and D or L forms follow the SMILES beside them.
A number alone suffices; assume %.

CC(C)C[C@@H]1NC(=O)[C@@H](C(C)C)NC(=O)[C@@H]2CCCN2C(=O)[C@@H](CC(=O)O)NC(=O)[C@@H](Cc2c[nH]c3ccccc23)NC1=O [BQ-123] (cyclo(L[dW][dD]P[dV])) ... 18
Nc1nc(-c2ccco2)c2cnn(Cc3ccccc3F)c2n1 ... 16

Supply Population Fragmented Nuclei (%) measured with U2OS for CC(C)(C)c1ccc(CSc2cnn(C(C)(C)C)c(=O)c2Cl)cc1 .
19

Using U2OS as the test system, report measured Population Fragmented Nuclei (%) of O=C(Nc1cc(-c2ccccc2)nn1-c1ccccc1F)c1ccc([N+](=O)[O-])cc1 .
12

Tell me Population Fragmented Nuclei (%) of COc1c(Nc2ccc(S(C)(=O)=O)nc2C)ncnc1OC1CCN(C(=O)OC(C)C)CC1 when tested on U2OS.
20

Please tell me the measured Population Fragmented Nuclei (%) for O=C(NCCNCC(O)COc1ccc(O)cc1)N1CCOCC1.O=C(NCCNCC(O)COc1ccc(O)cc1)N1CCOCC1.O=C(O)/C=C/C(=O)O (stereo unspecified) [XAMOTEROL FUMARATE] ; system: U2OS.
23

Retrieve Population Fragmented Nuclei (%) on U2OS; query O=c1nc2[nH]c3ccccc3nc-2c(=O)[nH]1
18

Give Population Fragmented Nuclei (%) only, for Cn1cc(C(=O)OCC2CCN(CCNS(C)(=O)=O)CC2)c2ccccc21 , using U2OS data.
13

Under U2OS: report Population Fragmented Nuclei (%) of Cc1cc(-c2ccc3c(c2)CC[C@H]3N2CC3(CCN(C(=O)Cc4cn5cc(C)sc5n4)CC3)C2)ncn1 .
16

Under U2OS: report Population Fragmented Nuclei (%) of CCCCCCNC(=O)Nc1ccc(S(=O)(=O)Nc2ccc(CCNC[C@H](O)COc3ccc(O)cc3)cc2)cc1 .
26

Identify measured Population Fragmented Nuclei (%) obtained with U2OS for Cc1nn(C)c2nc(NNC(=O)Nc3cc(Cl)nc(Cl)c3)cc(C(C)C)c12 .
21

====

# Tested on: Fibroblast
# protocol text: Multiplex assay against human fibroblast
# Type: toxicity, cell-based
# stated conditions: 12 h, 10 µM, compound concentration 10 uM, replicate 2
reported metric: Population Mitotic Cells (%)
Field format: number, assumed %, no unit text.

Given the molecule O=C(NCCNCC(O)COc1ccc(O)cc1)N1CCOCC1.O=C(NCCNCC(O)COc1ccc(O)cc1)N1CCOCC1.O=C(O)/C=C/C(=O)O (stereo unspecified) [XAMOTEROL FUMARATE] , write its reported Population Mitotic Cells (%).
82
